Study target: T1, ERG-ETS domain (UniProt P11308 307-400)
T1 sequence: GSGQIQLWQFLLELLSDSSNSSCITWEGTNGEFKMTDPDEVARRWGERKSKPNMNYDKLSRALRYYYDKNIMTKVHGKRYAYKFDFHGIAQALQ
Assay notes: EMSA; no compound; 1 nM DNA; EMSA: protein stored in 20 mM sodium phosphate, 200 mM NaCl, 2 mM DTT, 0.1 mM EDTA, pH 6.5; reaction with 3% glycerol, 0.2 mg/mL BSA, 1 nM dsDNA, room temperature 1 h; 10% native gel run at 10 C
Condition description: protein: recombinant; tags: His6 removed by thrombin; label: Alexa-488; blunt
Readout label: Kd

Please give measured Kd of the following entry: ETS consensus GGAA probe (dsDNA) DNA 1: CGGCCAAGCCGGAAGTGAGTG DNA 2: CACTCACTTCCGGCTTGGCCG ~1 nM
